- Assay info: Cell viability qHTS assay in S16 Pmp22-F2sN cells; also: nearly all actives have a fitted effect of over 65% in size
- Protocol conditions: S16 Pmp22-F2sN Schwann cells (luciferase reporters placed in the Pmp22 gene) viability, CellTiter-Glo, 24 h; series mostly up to 57.5 µM
- Excerpt: Assay Provider: Jim Inglese Ph.D. National Center for Advancing Translational Science, National Institutes of Health, Rockville, MD CMT is a heterogeneous group of neurological disorders that affect approximately 1 in 2,500 people. […] Cell viability assay in S16 Pmp22-F2sN cells PROTOCOL TABLE (format as described by Inglese J, Shamu CE and Guy RK. 2007) SEQUENCE No. (e.g., 1, 2, 3, etc.); […] […] FLuc luminescence measured using CCD-based camera (Viewlux). […]
In all, about 43,000 compounds went through this assay and about 200 (0.47%) were called active. Roughly 12% stayed inconclusive and do not appear here. Calls follow the shape of the dose curve; as a rule, active = well fitted cell-killing curve with a large enough effect; inconclusive = small, poorly fitted or top-dose-only effect, or effect the other way; inactive = flat fitted curve, though single readings scatter. The list comes from a sample in which actives are over-represented; it also holds close analogues and randomly drawn compounds.
Lab note: assign the record to one of yes (1) = active, no (0) = inactive

Sample answers from the record:
Qu. Status in this test for `Cc1ccc2c(=O)c(C(=O)c3ccc(Cl)cc3)cn(CC(=O)NC3CCCCC3)c2n1` ?
Ans. no (0)

Qu. Status in this test for `CCN(CC)S(=O)(=O)c1ccc2c(c1)N(CC(=O)NCc1ccccc1)C(=O)CS2` ?
Ans. no (0)

Here is another compound to look at.
Qu. Status in this test for `Cc1ccc2c(=O)c(C(=O)c3cccc(Cl)c3)cn(CC(=O)NCc3ccccc3)c2n1` ?
Ans. yes (1)
